FYI, the data here is from the nanobody polyreactivity screen of Harvey et al. (2022).

# EXPERIMENTAL_DETAILS: yeast display, Sf9 membrane polyspecificity reagent, FACS + sequencing; frameworks hold sequencing errors
MEASUREMENT_NAME: polyreactivity (PSR sort gate)

monomer_sequence=QDQLEESGGGLVQAGGSLRLSCAASVRTFRDNAMGWSRQATGKQRQLVAAITQSGASTFYADSVKGRFTISRDNAKNSVYLQMNSLKADDTAVYYCAALRRQGRYVYGYWGQGTQVTVSS recorded_value="high polyreactivity"
monomer_sequence=QVQLVESGGGLVQAGGSLRLSCAASGSTFQTYAMGSYRPAPGKERELVAAISKTGASTYYADSVKGRFTISRDNAKNTVNLQMNSLKPEDTAVYYCAAGRYTSYYPRYYYWGQGTQVTVSS recorded_value="high polyreactivity"

* * *

# EXPERIMENTAL_DETAILS: yeast display, Sf9 membrane polyspecificity reagent, FACS + sequencing; frameworks hold sequencing errors
MEASUREMENT_NAME: polyreactivity (PSR sort gate)

monomer_sequence=QVQLVESGGGLVQAGGSLSLSCAASGSIFRINAMGWYRQATGKERELVARISWRAGNTYYADSVKGRFTISRDNAKNTVYLQMNSLKPEDTAVYYCNADYYVTGLYGPGYDYWGQGTKVTVSS measurement_name="polyreactivity (PSR sort gate)" recorded_value="low polyreactivity"
monomer_sequence=QVQLQESGGGLVQAGGSLRQSYAASGYIFPSLAMGWYRQAPGKEREFVAAIGRGSTNNYADSVKGRFTISRDNAKNTAYLQMNSLKPEDTAVYYCAAAASPLNRHLYWGQGTQVTVSS measurement_name="polyreactivity (PSR sort gate)" recorded_value="low polyreactivity"

* * *

# EXPERIMENTAL_DETAILS: yeast display, Sf9 membrane polyspecificity reagent, FACS + sequencing; frameworks hold sequencing errors
MEASUREMENT_NAME: polyreactivity (PSR sort gate)

monomer_sequence=QVQLVDSGGGLVQAGGSLRLSCSASRSNFVYNAIGWYRKAPWKERELVTGISGGGGTNYADSVKGRFTISRDNEKNTVYLQMNSLKPEDTAVYYCAAEQNYIEFDYWGQGTQVTVSS measurement_name="polyreactivity (PSR sort gate)" recorded_value="low polyreactivity"
monomer_sequence=QVQLVESGGGLFQAGGSLRLSCAASGSTFRFNAKGWYRQAPGKERQFVAAIRFTGGSTYYADSVKGRFTISRDNAKNTVYLQMNSLKPEDTAVYYCINADEYSTVEYDYWGQGTQVSVSS measurement_name="polyreactivity (PSR sort gate)" recorded_value="low polyreactivity"
monomer_sequence=QVQLVESGGGLVQAGGSLRLSCAASGYIFLAYAKGWYRQAPGKERELVADNTYADSVKGRFTISRDNAKNTVYLKMNSMKPEDTAVYYCNADEVYDEYSYDYWGHGTQVTVSS measurement_name="polyreactivity (PSR sort gate)" recorded_value="low polyreactivity"
monomer_sequence=QVQLVESGGGLVQAGGSLRLSCAASGRTFKRNGMGWYRQAPGKERELVAAIRNTGSTKYADSVKGRFTISRDNAKNTVYLQMNSLKPEDTAVYYCNARVYEAQTYYYWGQGTQVTVSS measurement_name="polyreactivity (PSR sort gate)" recorded_value="high polyreactivity"

Q) Identify measured polyreactivity (PSR sort gate) associated with QVLLVESGGGLVQAGGSLRLSCAASGSTFYYYGMGWYRQAPGKEREFVAAISWGGGSTRYADSVKGRITISRDNAKNTVYLQMNSLKPEDTAVYYCAARYPHYDYYYWGQGTQVTVSS
A) high polyreactivity
